- Method notes: method code SF-AS, from Novello, F.; Sprague, M. (1967). Structure-activity relations among the thiazole diuretics. Ind. Chim. Belge, 32(Spec.No.), 222-225.
- Condition parameters: pH 6.5
Assay endpoint: logD

> print(dat)
                                   molecule  assay.endpoint  experimental.result
1  CCC1Nc2cc(Cl)c(S(N)(=O)=O)cc2S(=O)(=O)N1 (centres undefined)            logD                  0.3
2  NS(=O)(=O)c1cc2c(cc1[N+](=O)[O-])N=CNS2(=O)=O            logD                 0.08
3  NS(=O)(=O)c1cc2c(cc1C(F)(F)C(F)(F)F)N=CNS2(=O)=O            logD                 1.05
4  NS(=O)(=O)c1cc2c(cc1Cl)N=C(c1ccccc1)NS2(=O)=O            logD                  1.1
5  NS(=O)(=O)c1cc2c(cc1Cl)NC(C1CC3C=CC1C3)NS2(=O)=O (centres undefined)            logD                  1.8
6  CC(C)(C)C1Nc2cc(Cl)c(S(N)(=O)=O)cc2S(=O)(=O)N1 (centres undefined)            logD                 0.36
7  NS(=O)(=O)c1ccc2c(c1)S(=O)(=O)NC(C(Cl)Cl)N2 (centres undefined)            logD                 0.46
8  NS(=O)(=O)c1ccc2c(c1)S(=O)(=O)NC(Cc1ccccc1)N2 (centres undefined)            logD                 1.03
9  CC1CCC2(CC1)Nc1ccc(S(N)(=O)=O)cc1S(=O)(=O)N2 (centres undefined)            logD                 1.56

###

- Method notes: method code SF-AS, from Novello, F.; Sprague, M. (1967). Structure-activity relations among the thiazole diuretics. Ind. Chim. Belge, 32(Spec.No.), 222-225.
- Condition parameters: pH 6.4
Assay endpoint: logD

> print(dat)
                                   compound  assay.endpoint  experimental.result
1  NS(=O)(=O)c1cc2c(cc1Cl)NC(CSCc1ccccc1)NS2(=O)=O (stereo unspecified)            logD                 1.11
